Each recorded value in this set is attributed to paper PMC8391127.

# Tested on: Staphylococcus aureus
# METHOD DESCRIPTION: Antimicrobial screening, resazurine test
# Type: cell-based
# CONDITION INFO: Staphylococcus aureus, S. aureus, c = 50 µg·mL-1; read-out: Inhibition of the microorganism
List of inhibition at 50 µg/mL values.
Give the number; % is assumed, so skip it.

Worked cases, inhibition at 50 µg/mL given:
- COMPOUND: "CC1(C)CC[C@]2(C(=O)O)CC[C@]3(C)C(=CC[C@@H]4[C@@]5(C)CC[C@H](OCc6cn(CCOCCOCCOCCNC(=O)[C@]78CCC(C)(C)CC7C7=CC[C@@H]9[C@@]%10(C)CC[C@H](O)C(C)(C)[C@@H]%10CC[C@@]9(C)[C@]7(C)CC8)nn6)C(C)(C)[C@@H]5CC[C@]43C)C2C1 (stereo partly drawn) [8a]"
  SYSTEM: "Staphylococcus aureus"
  RESULT VALUE: 55
- COMPOUND: "CC1(C)C=C2C3CC[C@@H]4[C@@]5(C)CC[C@H](OCc6cn(CCOCCOCCOCCNC(=O)[C@]78CCC(C)(C)C=C7C7CC[C@@H]9[C@@]%10(C)CC[C@H](O)C(C)(C)[C@@H]%10CC[C@@]9(C)[C@]7(C)CC8)nn6)C(C)(C)[C@@H]5CC[C@@]4(C)[C@]3(C)CC[C@@]2(C(=O)O)CC1 (stereo partly drawn) [8b]"
  SYSTEM: "Staphylococcus aureus"
  RESULT VALUE: 24

Exercise: Query: inhibition at 50 µg/mL; subject: CC1(C)C=C2C3CC[C@@H]4[C@@]5(C)CC[C@H](OCc6cn(CCOCCOCCOCCNC(=O)[C@]78CCC(C)(C)C=C7[C@H]7CC[C@@H]9[C@@]%10(C)CCC(=O)C(C)(C)[C@@H]%10CC[C@@]9(C)[C@]7(C)CC8)nn6)C(C)(C)[C@@H]5CC[C@@]4(C)[C@]3(C)CC[C@@]2(C(=O)O)CC1 (stereo partly drawn) [6d]
Key: 31

###

# Test system: Enterococcus faecalis
# METHOD DESCRIPTION: Antimicrobial screening, resazurine test
# Assay type: cell-based
# CONDITION INFO: Enterococcus faecalis, E. faecalis, c = 50 µg·mL-1; read-out: Inhibition of the microorganism
Entries and their inhibition at 50 µg/mL
Number only, in %; omit the unit.

- COMPOUND: "CC1(C)C=C2[C@H]3CC[C@@H]4[C@@]5(C)CCC(=O)C(C)(C)[C@@H]5CC[C@@]4(C)[C@]3(C)CC[C@@]2(C(=O)NCCOCCOCCOCCn2cc(CO[C@H]3CC[C@]4(C)[C@H]5CC=C6C7CC(C)(C)CC[C@]7(C(=O)O)CC[C@@]6(C)[C@]5(C)CC[C@H]4C3(C)C)nn2)CC1 (stereo partly shown) [6c]"
  SYSTEM: "Enterococcus faecalis"
  inhibition at 50 µg/mL / %: 25
- COMPOUND: "CC1(C)CC[C@]2(C(=O)O)CC[C@]3(C)C(=CC[C@@H]4[C@@]5(C)CC[C@H](OCc6cn(CCOCCOCCOCCNC(=O)[C@]78CCC(C)(C)CC7C7=CC[C@@H]9[C@@]%10(C)CC[C@H](O)C(C)(C)[C@@H]%10CC[C@@]9(C)[C@]7(C)CC8)nn6)C(C)(C)[C@@H]5CC[C@]43C)C2C1 (stereo partly shown) [8a]"
  SYSTEM: "Enterococcus faecalis"
  inhibition at 50 µg/mL / %: 28

Exercise: For CC1(C)C=C2C3CC[C@@H]4[C@@]5(C)CC[C@H](OCc6cn(CCOCCOCCOCCNC(=O)[C@]78CCC(C)(C)C=C7[C@H]7CC[C@@H]9[C@@]%10(C)CCC(=O)C(C)(C)[C@@H]%10CC[C@@]9(C)[C@]7(C)CC8)nn6)C(C)(C)[C@@H]5CC[C@@]4(C)[C@]3(C)CC[C@@]2(C(=O)O)CC1 (stereo partly shown) [6d] , what is its reported inhibition at 50 µg/mL?
Key: 14

Exercise: Name the recorded inhibition at 50 µg/mL for CC1(C)CC[C@]2(C(=O)O)CC[C@]3(C)C(=CC[C@@H]4[C@@]5(C)CC[C@H](O)C(C)(C)[C@@H]5CC[C@]43C)[C@@H]2C1 [1a, Oleanolic acid, reference compound] .
Key: 90

Exercise: Entry under review: CC1(C)C=C2C3CC[C@@H]4[C@@]5(C)CC[C@H](OCc6cn(CCOCCOCCOCCNC(=O)[C@]78CCC(C)(C)C=C7C7CC[C@@H]9[C@@]%10(C)CC[C@H](O)C(C)(C)[C@@H]%10CC[C@@]9(C)[C@]7(C)CC8)nn6)C(C)(C)[C@@H]5CC[C@@]4(C)[C@]3(C)CC[C@@]2(C(=O)O)CC1 (stereo partly shown) [8b] . Reported inhibition at 50 µg/mL?
Key: 43

Exercise: What value of measured inhibition at 50 µg/mL is listed for CC1(C)C=C2[C@H]3CC[C@@H]4[C@@]5(C)CCC(=O)C(C)(C)[C@@H]5CC[C@@]4(C)[C@]3(C)CC[C@@]2(C(=O)NCCOCCOCCOCCn2cc(COC(=O)[C@]34CCC(C)(C)C=C3[C@H]3CC[C@@H]5[C@@]6(C)CCC(=O)C(C)(C)[C@@H]6CC[C@@]5(C)[C@]3(C)CC4)nn2)CC1 [4c] ?
Key: 50

###

# METHOD DESCRIPTION: Cytotoxicity screening test
# Format: cell-based
# CONDITION INFO: human, CEM T-lymphoblastic leukemia cells
QUANTITY: IC50

Exercise: Fill in the blank: the reported IC50 of CC1(C)C=C2C3CC[C@@H]4[C@@]5(C)CC[C@H](OCc6cn(CCOCCOCCOCCNC(=O)[C@]78CCC(C)(C)C=C7[C@H]7CC[C@@H]9[C@@]%10(C)CCC(=O)C(C)(C)[C@@H]%10CC[C@@]9(C)[C@]7(C)CC8)nn6)C(C)(C)[C@@H]5CC[C@@]4(C)[C@]3(C)CC[C@@]2(C(=O)O)CC1 (stereo partly shown) is ____.
Key: > 50 µM

###

# System: Staphylococcus aureus
# METHOD DESCRIPTION: Antimicrobial screening, resazurine test
# Assay type: cell-based
# CONDITION INFO: Staphylococcus aureus, S. aureus, c = 50 µg·mL-1; read-out: Inhibition of the microorganism
QUANTITY: inhibition at 50 µg/mL (%)
# value in %; strip the unit string

Some solved cases for reference:
- MOLECULE: "CC1(C)C=C2[C@H]3CC[C@@H]4[C@@]5(C)CCC(=O)C(C)(C)[C@@H]5CC[C@@]4(C)[C@]3(C)CC[C@@]2(C(=O)NCCOCCOCCOCCn2cc(CO[C@H]3CC[C@]4(C)[C@H]5CC=C6C7CC(C)(C)CC[C@]7(C(=O)O)CC[C@@]6(C)[C@]5(C)CC[C@H]4C3(C)C)nn2)CC1 (stereo partly shown)"
  SYSTEM: "Staphylococcus aureus"
  inhibition at 50 µg/mL [%]: 51
- MOLECULE: "CC1(C)CC[C@]2(C(=O)O)CC[C@]3(C)C(=CC[C@@H]4[C@@]5(C)CC[C@H](O)C(C)(C)[C@@H]5CC[C@]43C)[C@@H]2C1 [1a, Oleanolic acid, reference compound]"
  SYSTEM: "Staphylococcus aureus"
  inhibition at 50 µg/mL [%]: 8
- MOLECULE: "CC1(C)C=C2[C@H]3CC[C@@H]4[C@@]5(C)CCC(=O)C(C)(C)[C@@H]5CC[C@@]4(C)[C@]3(C)CC[C@@]2(C(=O)NCCOCCOCCOCCn2cc(COC(=O)[C@]34CCC(C)(C)C=C3[C@H]3CC[C@@H]5[C@@]6(C)CCC(=O)C(C)(C)[C@@H]6CC[C@@]5(C)[C@]3(C)CC4)nn2)CC1"
  SYSTEM: "Staphylococcus aureus"
  inhibition at 50 µg/mL [%]: 66

Moving on to the next molecule.
Exercise: Form field: inhibition at 50 µg/mL recorded for CC1(C)C=C2[C@H]3CC[C@@H]4[C@@]5(C)CCC(=O)C(C)(C)[C@@H]5CC[C@@]4(C)[C@]3(C)CC[C@@]2(C(=O)O)CC1 [1c, moronic acid, reference compound] with Staphylococcus aureus (enter value)
Key: 3

###

# Tested on: Staphylococcus aureus
# METHOD DESCRIPTION: Antimicrobial screening, resazurine test
# Format: cell-based
# CONDITION INFO: Staphylococcus aureus, S. aureus, c = 25 µg·mL-1; read-out: Inhibition of the microorganism
QUANTITY: inhibition at 25 µg/mL (%)
Give the number; % is assumed, so skip it.

Exercise: Give the reported inhibition at 25 µg/mL for CC1(C)C=C2[C@H]3CC[C@@H]4[C@@]5(C)CCC(=O)C(C)(C)[C@@H]5CC[C@@]4(C)[C@]3(C)CC[C@@]2(C(=O)NCCOCCOCCOCCn2cc(COC(=O)[C@]34CCC(C)(C)C=C3[C@H]3CC[C@@H]5[C@@]6(C)CCC(=O)C(C)(C)[C@@H]6CC[C@@]5(C)[C@]3(C)CC4)nn2)CC1 (system: Staphylococcus aureus).
Key: 11
